meta.source: the supplement of paper PMC9446081

# System: DNA gyrase
# procedure.details: relative enzymatic activity vs untreated control (fraction); higher = less inhibition
# condition.context: 100 µM; incubation time: 2 h at 37 C
Each entry falls into one class according to its relative enzymatic activity; the ranges are A: < 0.3; B: ≥ 0.3 and < 0.7; C: ≥ 0.7

Query :: Returns: class label. Input: COC1=C(OC)C(=O)C(CCCCCCCCCC[P+](c2ccccc2)(c2ccccc2)c2ccccc2)=C(C)C1=O
Result :: A

Query :: Returns: class label. Input: C[C@H]1COc2c(C3(N)CC3)c(F)cc3c(=O)c(C(=O)O)cn1c23
Result :: A

Query :: Returns: class label. Input: CS(=O)(=O)c1ccc(C(O)C(CF)NC(=O)C(Cl)Cl)cc1 (centres undefined)
Result :: C

Query :: Returns: class label. Input: COc1cc2c(cc1OC)C(=O)C(CC1CCN(Cc3ccccc3)CC1)C2.Cl (centres undefined)
Result :: B

Query :: Returns: class label. Input: CC1c2cccc(O)c2C(=O)C2=C(O)C3(O)C(=O)C(C(N)=O)=C(O)C(N(C)C)C3C(O)C21.Cl (centres undefined)
Result :: C

Query :: Returns: class label. Input: Cc1cn([C@H]2C[C@H](N=[N+]=[N-])[C@@H](CO)O2)c(=O)[nH]c1=O
Result :: B

Query :: Returns: class label. Input: Cc1ccc(S(=O)(=O)O)cc1.NC1CCN(c2nc3c(cc2F)c(=O)c(C(=O)O)cn3-c2ccc(F)cc2F)C1.O (centres undefined)
Result :: C

Query :: Returns: class label. Input: CN(C)CCOC(c1ccccc1)c1ccccc1.Cn1c(=O)c2[nH]c(Cl)nc2n(C)c1=O
Result :: C

Query :: Returns: class label. Input: O=C(O)c1cn(C2CC2)c2cc(N3CCNCC3)c(F)cc2c1=O
Result :: A

Query :: Returns: class label. Input: CC[C@H](C)C[C@H](C)CCCCCCCCC(=O)N[C@H]1C[C@@H](O)[C@@H](NCCN)NC(=O)[C@@H]2[C@@H](O)CCN2C(=O)[C@H]([C@H](O)CCN)NC(=O)[C@H]([C@H](O)[C@@H](O)c2ccc(O)cc2)NC(=O)[C@@H]2C[C@@H](O)CN2C(=O)[C@H]([C@@H](C)O)NC1=O
Result :: A

Query :: Returns: class label. Input: NCCCC[C@H](NC(=O)[C@@H](NC(=O)[C@H](Cc1c[nH]c2ccccc12)NC(=O)[C@H](CCCCN)NC(=O)[C@H](CCCCN)NC(=O)[C@H](Cc1c[nH]c2ccccc12)NC(=O)[C@H](Cc1c[nH]c2ccccc12)NC(=O)[C@H](CCCCN)NC(=O)[C@@H](N)CCCCN)C(c1ccccc1)c1ccccc1)C(N)=O
Result :: A

----------
# system.under.test: MurD (UniProt P14900)
# Sequence (P14900 whole entry): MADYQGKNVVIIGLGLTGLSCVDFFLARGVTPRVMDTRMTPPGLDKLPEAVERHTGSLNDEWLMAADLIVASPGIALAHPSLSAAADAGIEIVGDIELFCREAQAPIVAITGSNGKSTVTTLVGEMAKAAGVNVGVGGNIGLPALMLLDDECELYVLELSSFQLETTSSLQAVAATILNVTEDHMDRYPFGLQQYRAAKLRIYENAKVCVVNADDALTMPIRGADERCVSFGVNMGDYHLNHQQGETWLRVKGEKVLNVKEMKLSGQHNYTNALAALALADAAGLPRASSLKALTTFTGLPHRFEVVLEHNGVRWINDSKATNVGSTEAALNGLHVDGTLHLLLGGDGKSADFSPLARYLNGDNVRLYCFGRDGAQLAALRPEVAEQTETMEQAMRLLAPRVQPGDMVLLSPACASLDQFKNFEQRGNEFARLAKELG
# procedure.details: relative enzymatic activity vs untreated control (fraction); higher = less inhibition
# condition.context: 100 µM; incubation time: 2 h at 37 C
test.readout: relative enzymatic activity
Response field accepts a number only; no unit should be typed.

Query :: So what does the record say about relative enzymatic activity for N[C@@H](C(=O)N[C@@H]1C(=O)N2C(C(=O)O)=C(Cl)CC[C@H]12)c1ccccc1 ?
Result :: 0.603

Query :: So what does the record say about relative enzymatic activity for CCCC[P+](CCCC)(CCCC)Cc1ccc(NC(=O)[C@H](Cc2ccc3ccccc3c2)N/C(=N/C2CCCCC2)NC2CCCCC2)cc1 ?
Result :: 0.167

Query :: So what does the record say about relative enzymatic activity for COC1=C(N)C(=O)c2nc(-c3nc(C(=O)O)c(C)c(-c4ccc(OC)c(OC)c4O)c3N)ccc2C1=O ?
Result :: 0.596

Query :: So what does the record say about relative enzymatic activity for Cl.NC1CCN(c2c(F)cc3c(=O)c(C(=O)O)cn(C4CC4)c3c2Cl)C1 (configuration not stated) ?
Result :: 0.606

Query :: So what does the record say about relative enzymatic activity for CO[C@@H]1[C@@H](OC(=O)c2ccc(C)[nH]2)[C@@H](O)[C@@H](Oc2ccc3c(c2C)OC(=O)[C@H](NC(=O)c2[nH]cc(CC(=O)Nc4cc5ccc(O[C@@H]6OC(C)(C)[C@H](OC)[C@@H](OC(=O)c7ccc(C)[nH]7)[C@H]6O)c(C)c5oc4=O)c2C)C3)CC1(C)C ?
Result :: 0.869

Query :: So what does the record say about relative enzymatic activity for CCn1cc(C(=O)O)c(=O)c2cc(F)c(N3CCN(C)CC3)cc21.CS(=O)(=O)O ?
Result :: 0.589

Query :: So what does the record say about relative enzymatic activity for CON=C1CN(c2nc3c(cc2F)c(=O)c(C(=O)O)cn3C2CC2)CC1CN.CS(=O)(=O)O (configuration not stated) ?
Result :: 0.503

----------
# system.under.test: DNA polymerase (UniProt P10443)
# Sequence (P10443 whole entry): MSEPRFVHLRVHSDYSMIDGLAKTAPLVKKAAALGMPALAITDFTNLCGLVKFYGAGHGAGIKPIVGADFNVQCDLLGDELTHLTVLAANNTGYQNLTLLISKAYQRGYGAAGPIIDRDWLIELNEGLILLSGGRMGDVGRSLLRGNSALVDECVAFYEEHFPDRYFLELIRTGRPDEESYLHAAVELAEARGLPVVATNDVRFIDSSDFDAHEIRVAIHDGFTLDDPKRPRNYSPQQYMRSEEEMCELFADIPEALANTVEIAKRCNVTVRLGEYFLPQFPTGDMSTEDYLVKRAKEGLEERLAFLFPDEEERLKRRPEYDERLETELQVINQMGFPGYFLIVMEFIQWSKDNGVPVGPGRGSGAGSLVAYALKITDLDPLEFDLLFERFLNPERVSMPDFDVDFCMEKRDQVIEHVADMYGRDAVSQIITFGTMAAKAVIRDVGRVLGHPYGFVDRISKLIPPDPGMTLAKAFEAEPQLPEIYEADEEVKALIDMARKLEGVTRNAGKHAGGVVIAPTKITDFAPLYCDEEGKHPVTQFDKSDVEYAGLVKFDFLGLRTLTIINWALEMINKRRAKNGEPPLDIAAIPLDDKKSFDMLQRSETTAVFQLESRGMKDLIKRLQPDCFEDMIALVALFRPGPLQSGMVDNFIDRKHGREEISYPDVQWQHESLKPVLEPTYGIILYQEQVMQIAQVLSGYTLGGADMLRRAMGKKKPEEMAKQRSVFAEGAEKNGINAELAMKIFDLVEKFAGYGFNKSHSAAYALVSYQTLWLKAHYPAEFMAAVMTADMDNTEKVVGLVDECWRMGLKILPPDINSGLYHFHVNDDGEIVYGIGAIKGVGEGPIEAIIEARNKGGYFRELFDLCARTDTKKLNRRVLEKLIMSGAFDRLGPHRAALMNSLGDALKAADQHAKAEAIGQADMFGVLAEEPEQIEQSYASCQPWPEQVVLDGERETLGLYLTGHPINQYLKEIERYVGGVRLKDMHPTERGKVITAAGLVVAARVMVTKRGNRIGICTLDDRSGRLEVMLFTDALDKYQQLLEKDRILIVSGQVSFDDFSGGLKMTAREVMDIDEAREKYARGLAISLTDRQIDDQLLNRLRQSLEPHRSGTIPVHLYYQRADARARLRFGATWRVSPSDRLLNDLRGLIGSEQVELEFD
# procedure.details: relative enzymatic activity vs untreated control (fraction); higher = less inhibition
# condition.context: 100 µM; incubation time: 2 h at 37 C
Would you please tag the item 1.0 when its relative enzymatic activity is 1 or above, and 0.0 when it is below?

Query :: Hi team, for CCCCCCCCCCCCC[N+](C)(C)Cc1ccccc1 , is the recorded relative enzymatic activity at or above 1?
Result :: 1.0

Query :: Hi team, for Cc1c(N)nc([C@H](CC(N)=O)NC[C@H](N)C(N)=O)nc1C(=O)N[C@H](C(=O)N[C@H](C)[C@@H](O)[C@H](C)C(=O)N[C@H](C(=O)NCCc1nc(-c2nc(C(=O)NCCCNCCCCN)cs2)cs1)[C@@H](C)O)[C@@H](O[C@@H]1O[C@@H](CO)[C@@H](O)[C@H](O)[C@@H]1O[C@@H]1O[C@H](CO)[C@@H](O)[C@H](OC(N)=O)[C@@H]1O)c1c[nH]cn1 , is the recorded relative enzymatic activity at or above 1?
Result :: 0.0

Query :: Hi team, for Cc1cc(C(C)(C)CC(C)(C)C)ccc1OCCOCC[N+](C)(C)Cc1ccccc1.[Cl-] , is the recorded relative enzymatic activity at or above 1?
Result :: 0.0

Query :: Hi team, for Oc1ccc(Cl)c2cccnc12 , is the recorded relative enzymatic activity at or above 1?
Result :: 1.0

Query :: Hi team, for C=CC1=C(C(=O)O)N2C(=O)[C@@H](NC(=O)/C(=N\O)c3csc(N)n3)[C@H]2SC1 , is the recorded relative enzymatic activity at or above 1?
Result :: 1.0

Query :: Hi team, for CC[C@H]1OC(=O)[C@H](C)[C@@H](O[C@H]2C[C@@](C)(OC)[C@@H](O)[C@H](C)O2)[C@H](C)[C@@H](O[C@@H]2O[C@H](C)C[C@H](N(C)C)[C@H]2O)[C@](C)(O)C[C@@H](C)CN(C)[C@H](C)[C@@H](O)[C@]1(C)O , is the recorded relative enzymatic activity at or above 1?
Result :: 1.0

Query :: Hi team, for COC12C(COC(N)=O)C3=C(C(=O)C(C)=C(N)C3=O)N1CC1NC12 (stereo not drawn) , is the recorded relative enzymatic activity at or above 1?
Result :: 1.0

Query :: Hi team, for CO/N=C(\C(=O)N[C@@H]1C(=O)N2C(C(=O)O)=C(C[n+]3ccn4ncccc43)CS[C@H]12)c1nsc(N)n1 , is the recorded relative enzymatic activity at or above 1?
Result :: 1.0

Query :: Hi team, for CC(C)CCCC(=O)N[C@@H](CCNCS(=O)(=O)O)C(=O)N[C@H](C(=O)N[C@@H](CCNCS(=O)(=O)O)C(=O)N[C@H]1CCNC(=O)[C@H]([C@@H](C)O)NC(=O)[C@H](CCNCS(=O)(=O)O)NC(=O)[C@H](CCNCS(=O)(=O)O)NC(=O)[C@H](CC(C)C)NC(=O)[C@H](CC(C)C)NC(=O)[C@H](CCNCS(=O)(=O)O)NC1=O)[C@@H](C)O , is the recorded relative enzymatic activity at or above 1?
Result :: 1.0

Query :: Hi team, for Cl.O=C1CC2(CCCC2)CC(=O)N1CCCCN1CCN(c2ncccn2)CC1 , is the recorded relative enzymatic activity at or above 1?
Result :: 1.0

Query :: Hi team, for O=C1NCCN1c1ncc([N+](=O)[O-])s1 , is the recorded relative enzymatic activity at or above 1?
Result :: 1.0

Query :: Hi team, for CN1CCN(c2c(F)cc3c(=O)c(C(=O)O)cn4c3c2OCN4C)CC1 , is the recorded relative enzymatic activity at or above 1?
Result :: 1.0

Query :: Hi team, for NCC1OC(OC2C(N)CC(N)C(OC3OC(CO)C(O)C(N)C3O)C2O)C(N)C(O)C1O.O=S(=O)(O)O (stereo not drawn) , is the recorded relative enzymatic activity at or above 1?
Result :: 0.0

Query :: Hi team, for Oc1c(Cl)cc(Cl)c(Cl)c1Cc1c(O)c(Cl)cc(Cl)c1Cl , is the recorded relative enzymatic activity at or above 1?
Result :: 0.0

Query :: Hi team, for CCCCCCCCCCCCCCCC[N+](C)(C)Cc1ccccc1.[Cl-] , is the recorded relative enzymatic activity at or above 1?
Result :: 0.0

Query :: Hi team, for CON=C(C(=O)N[C@@H]1C(=O)N2C(C(=O)O)=C(CSc3nc(=O)c(O)nn3C)CS[C@H]12)c1csc(N)n1 , is the recorded relative enzymatic activity at or above 1?
Result :: 1.0

Query :: Hi team, for C=C1c2cccc(O)c2C(=O)[C@@H]2C(=O)[C@]3(O)C(=O)[C@@H](C(N)=O)C(=O)[C@@H](N(C)C)[C@@H]3[C@@H](O)[C@H]12 , is the recorded relative enzymatic activity at or above 1?
Result :: 1.0

Query :: Hi team, for CCCCCCCCCCCCC[N+](C)(C)Cc1ccccc1.O.[Cl-] , is the recorded relative enzymatic activity at or above 1?
Result :: 0.0

Query :: Hi team, for CC(C)(O/N=C(\C(=O)N[C@@H]1C(=O)N2C(C(=O)O)=C(C[n+]3ccccc3)CS[C@H]12)c1csc(N)n1)C(=O)O , is the recorded relative enzymatic activity at or above 1?
Result :: 1.0

Query :: Hi team, for COC1C=COC2(C)Oc3c(C)c(O)c4c(O)c(c(C=NN5CCN(C6CCCC6)CC5)c(O)c4c3C2=O)NC(=O)C(C)=CC=CC(C)C(O)C(C)C(O)C(C)C(OC(C)=O)C1C (stereo not drawn) , is the recorded relative enzymatic activity at or above 1?
Result :: 0.0

Query :: Hi team, for C[C@H]1c2cccc(O)c2C(=O)C2=C(O)[C@]3(O)C(=O)[C@@H](C(N)=O)C(=O)[C@@H](N(C)C)[C@@H]3[C@@H](O)[C@@H]21 , is the recorded relative enzymatic activity at or above 1?
Result :: 1.0

Query :: Hi team, for O=C1OCCN1N=Cc1ccc([N+](=O)[O-])o1 , is the recorded relative enzymatic activity at or above 1?
Result :: 1.0

Query :: Hi team, for O=c1[nH]cc(F)c(=O)[nH]1 , is the recorded relative enzymatic activity at or above 1?
Result :: 0.0

Query :: Hi team, for CCC(C)CCCCC(=O)NC(CCN)C(=O)NC(C(=O)NC(CCN)C(=O)NC1CCNC(=O)C(C(C)O)NC(=O)C(CCN)NC(=O)C(CCN)NC(=O)C(CC(C)C)NC(=O)C(Cc2ccccc2)NC(=O)C(CCN)NC1=O)C(C)O.O=S(=O)(O)O (stereo not drawn) , is the recorded relative enzymatic activity at or above 1?
Result :: 1.0

Query :: Hi team, for CCn1cc(C(=O)O)c(=O)c2cc(F)c(N3CCNCC3)cc21 , is the recorded relative enzymatic activity at or above 1?
Result :: 1.0

Query :: Hi team, for CO[C@@H]1[C@@H](OC(=O)c2ccc(C)[nH]2)[C@@H](O)[C@@H](Oc2ccc3c(c2C)OC(=O)[C@H](NC(=O)c2[nH]cc(CC(=O)Nc4cc5ccc(O[C@@H]6OC(C)(C)[C@H](OC)[C@@H](OC(=O)c7ccc(C)[nH]7)[C@H]6O)c(C)c5oc4=O)c2C)C3)CC1(C)C , is the recorded relative enzymatic activity at or above 1?
Result :: 0.0

Query :: Hi team, for Nc1nc(/C(=N/O)C(=O)N[C@@H]2C(=O)N3C(C(=O)O)=C(/C=C4\CCN([C@@H]5CCNC5)C4=O)CS[C@H]23)ns1 , is the recorded relative enzymatic activity at or above 1?
Result :: 1.0
